# TESTED TARGET: EPHB1 (UniProt P54762)
# Sequence (P54762 whole entry, looked up): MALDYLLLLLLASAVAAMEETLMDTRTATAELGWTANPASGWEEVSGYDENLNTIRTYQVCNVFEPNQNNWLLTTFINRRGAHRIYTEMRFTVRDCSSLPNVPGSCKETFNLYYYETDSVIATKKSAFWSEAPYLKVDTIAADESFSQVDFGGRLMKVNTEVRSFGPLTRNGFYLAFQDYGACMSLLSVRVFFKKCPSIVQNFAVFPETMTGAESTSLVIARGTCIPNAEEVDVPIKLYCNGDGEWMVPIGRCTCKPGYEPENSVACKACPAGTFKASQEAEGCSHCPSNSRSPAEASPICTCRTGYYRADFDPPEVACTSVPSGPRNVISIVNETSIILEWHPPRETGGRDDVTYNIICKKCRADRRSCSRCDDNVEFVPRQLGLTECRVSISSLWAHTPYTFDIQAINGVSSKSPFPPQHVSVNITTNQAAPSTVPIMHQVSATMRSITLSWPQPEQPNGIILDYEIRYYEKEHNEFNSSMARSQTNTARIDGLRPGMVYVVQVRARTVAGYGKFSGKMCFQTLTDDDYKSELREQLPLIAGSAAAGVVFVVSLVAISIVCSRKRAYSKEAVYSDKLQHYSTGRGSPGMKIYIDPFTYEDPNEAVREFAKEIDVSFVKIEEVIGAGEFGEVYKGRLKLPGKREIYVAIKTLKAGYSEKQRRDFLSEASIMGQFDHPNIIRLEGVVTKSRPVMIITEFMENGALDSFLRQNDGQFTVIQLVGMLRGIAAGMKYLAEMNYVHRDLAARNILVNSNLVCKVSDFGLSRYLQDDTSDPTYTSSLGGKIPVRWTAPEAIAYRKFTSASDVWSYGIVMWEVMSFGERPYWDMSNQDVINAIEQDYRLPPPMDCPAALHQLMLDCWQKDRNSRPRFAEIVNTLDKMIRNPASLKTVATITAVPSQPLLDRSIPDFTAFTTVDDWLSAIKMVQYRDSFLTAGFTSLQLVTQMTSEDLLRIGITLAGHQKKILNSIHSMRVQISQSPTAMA
# ASSAY EXPLANATION: phosphorylation enrichment, bacterial display (enrichment ratio); higher = better substrate or ligand; peptides without Tyr show the background;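 also: 11-residue human phosphosite peptides and single-mutation variants displayed on the E. coli surface, counted by deep sequencing, each peptide's frequency after selection divided by its frequency in the unselected input library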;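 also: frequency after pTyr selection over input frequency; kinase dosed for 20-30% of maximal phosphorylation in three min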
RESULT TYPE: phosphorylation enrichment
Give the figure by itself; no unit, no explanation.

Exercise: Hello, I am looking for reported phosphorylation enrichment with EPHB1 (UniProt P54762) for DAGTDYVGISC [FREM2_Y2061_R2066C] . Could you help?
Solution: 0.578

Exercise: Hello, I am looking for reported phosphorylation enrichment with EPHB1 (UniProt P54762) for KRIETYFSKNF [PLP1_Y50_L46R_YF] . Could you help?
Solution: 0.43

Exercise: Hello, I am looking for reported phosphorylation enrichment with EPHB1 (UniProt P54762) for LGQRIYQFIRS [DYRK1B_Y271_Q275R_YF] . Could you help?
Solution: 9.19

Exercise: Hello, I am looking for reported phosphorylation enrichment with EPHB1 (UniProt P54762) for GGPTFYIDTNA [ACTL6A_Y69_YF] . Could you help?
Solution: 0.707

Exercise: Hello, I am looking for reported phosphorylation enrichment with EPHB1 (UniProt P54762) for LNPLFYSLRNK [OR5R1_Y290_I289F] . Could you help?
Solution: 0.396

Exercise: Hello, I am looking for reported phosphorylation enrichment with EPHB1 (UniProt P54762) for PRNLIYFGEHP [TRPV6_Y201_C197R] . Could you help?
Solution: 0.631

Exercise: Hello, I am looking for reported phosphorylation enrichment with EPHB1 (UniProt P54762) for IFHENYNAGTY [CFI_Y421] . Could you help?
Solution: 0.656

Exercise: Hello, I am looking for reported phosphorylation enrichment with EPHB1 (UniProt P54762) for SLQAHYDTPRS [DOK7_Y405_R402Q] . Could you help?
Solution: 0.435

Exercise: Hello, I am looking for reported phosphorylation enrichment with EPHB1 (UniProt P54762) for LLRLAYLADIF [ZBED5_Y476] . Could you help?
Solution: 0.69

Exercise: Hello, I am looking for reported phosphorylation enrichment with EPHB1 (UniProt P54762) for NQNIGYKLGHR [KCNN3_Y268] . Could you help?
Solution: 0.324

Exercise: Hello, I am looking for reported phosphorylation enrichment with EPHB1 (UniProt P54762) for SNMPTYSGHFT [GRIN2A_Y1224] . Could you help?
Solution: 0.636

Exercise: Hello, I am looking for reported phosphorylation enrichment with EPHB1 (UniProt P54762) for TGNPAYRSFSN [IL4R_Y497_A492T] . Could you help?
Solution: 0.328

Exercise: Hello, I am looking for reported phosphorylation enrichment with EPHB1 (UniProt P54762) for NPETCYQKLKK [TK2_Y190_R192K] . Could you help?
Solution: 0.583

Exercise: Hello, I am looking for reported phosphorylation enrichment with EPHB1 (UniProt P54762) for FDDDDYDTDFV [BLM_Y296] . Could you help?
Solution: 0.662

Exercise: Hello, I am looking for reported phosphorylation enrichment with EPHB1 (UniProt P54762) for YAKSVYWENTL [NUP107_Y296] . Could you help?
Solution: 0.584

Exercise: Hello, I am looking for reported phosphorylation enrichment with EPHB1 (UniProt P54762) for WEQELYSQLVY [WAS_Y102] . Could you help?
Solution: 11.8

Exercise: Hello, I am looking for reported phosphorylation enrichment with EPHB1 (UniProt P54762) for SAVVPYEPPEV [TP53_Y220_V216A] . Could you help?
Solution: 0.643

Exercise: Hello, I am looking for reported phosphorylation enrichment with EPHB1 (UniProt P54762) for AQMAMYFWEMG [TRPM4_Y577] . Could you help?
Solution: 0.995

Exercise: Hello, I am looking for reported phosphorylation enrichment with EPHB1 (UniProt P54762) for DEEPPYRGPFC [SASH1_Y551] . Could you help?
Solution: 0.509

Exercise: Hello, I am looking for reported phosphorylation enrichment with EPHB1 (UniProt P54762) for TYTVSYLPDMS [FLNC_Y1602] . Could you help?
Solution: 0.528

Exercise: Hello, I am looking for reported phosphorylation enrichment with EPHB1 (UniProt P54762) for CTNIHYNFMCN [TP53_Y234_T231N_YF] . Could you help?
Solution: 0.436

Exercise: Hello, I am looking for reported phosphorylation enrichment with EPHB1 (UniProt P54762) for AGGTRYRFVSQ [UCN3_Y95_R91G_YF] . Could you help?
Solution: 0.397

Exercise: Hello, I am looking for reported phosphorylation enrichment with EPHB1 (UniProt P54762) for RTLSEYARPHV [RERE_Y1259] . Could you help?
Solution: 0.832

Exercise: Hello, I am looking for reported phosphorylation enrichment with EPHB1 (UniProt P54762) for EREFKYGAHNF [OAT_Y50_YF] . Could you help?
Solution: 0.392

Exercise: Hello, I am looking for reported phosphorylation enrichment with EPHB1 (UniProt P54762) for GGMTEYELVVV [KRAS_Y4_K5E] . Could you help?
Solution: 1.39

Exercise: Hello, I am looking for reported phosphorylation enrichment with EPHB1 (UniProt P54762) for FDNSVYQKTTE [LDLR_Y828_P826S] . Could you help?
Solution: 0.487

Exercise: Hello, I am looking for reported phosphorylation enrichment with EPHB1 (UniProt P54762) for DFAIVYGTIIL [GPR179_Y460_G455D] . Could you help?
Solution: 0.732

Exercise: Hello, I am looking for reported phosphorylation enrichment with EPHB1 (UniProt P54762) for EKKKFYDTKIE [CASP5_Y104_YF] . Could you help?
Solution: 0.396

Exercise: Hello, I am looking for reported phosphorylation enrichment with EPHB1 (UniProt P54762) for FHNSEYGELSE [FLT4_Y1337_Y1333H] . Could you help?
Solution: 0.613
